Tested on: LOX IMVI melanoma
Experiment: NCI-60 one-dose screen, 48 h (100 = growth as untreated, 0 = no growth, -100 = all killed)
Details: 10 µM unless noted
Compounds without any hit were thinned out: in the full panel of roughly 83,000, 20% have a hit.
growth vs 10%: at or above is Criterion met, below is Criterion not met.

-- ask Hi team, for CC(=O)OC[C@]1(C)C=C2C(=O)[C@](C)(O)C3(CC3)C(C)=C2[C@H]1OC(=O)N(C)CCN(C)C(=O)OC(C)(C)C , is the recorded growth at or above 10%?
-- reply Criterion not met

-- ask Would you kindly repeat that for COC(=O)[C@@H](C)C[C@H](Cc1ccccc1)NC(=O)c1nc([C@@H](C[C@H](C(C)C)N(C)C(=O)[C@@H](NC(=O)[C@H]2CC(=O)CCN2C)C(C)C)OC(C)=O)sc1C(C)C ?
-- reply Criterion met

-- ask Next record, please: CN(C)C1C(=O)C(C(N)=O)=C(O)C2(O)C(=O)C3=C(O)c4c(O)cccc4C(C)(O)C3CC12.[Cl][Sb]([Cl])[Cl] (centres undefined)
-- reply Criterion met

-- ask Now consider CCN(CCO)C(Cc1ccccc1)c1ccccc1 (centres undefined) and answer again.
-- reply Criterion met

-- ask Entry to check: COc1ccc(-n2c(C)nc3cc(OC)c(OC)cc3c2=O)cc1OC
-- reply Criterion met

-- ask Would you mind doing CC(C)[C@]12O[C@H]1[C@@H]1O[C@]13[C@]1(O[C@H]1C[C@H]1c4c(C(=O)c5ccccc5)oc(OC(=O)c5ccccc5)c4CC[C@@]13C)[C@@H]2O as well?
-- reply Criterion not met

-- ask Please do the same for C[C@@]1(CCCCCCCCCc2ccc(O)cc2)C[C@]2(C)OC(=O)C[C@@H]2OO1 as well.
-- reply Criterion not met

-- ask Same for O=C1C2CC=CCC2C(=O)N1SC(Cl)(Cl)Cl (centres undefined)
-- reply Criterion met

-- ask Then what about the molecule CCC(CC)CC1(C)CC2(C)CCOC2OO1 (centres undefined) ?
-- reply Criterion met

###

Test system: MOLT-4 leukemia
Assay: NCI-60 one-dose screen, 48 h (100 = growth as untreated, 0 = no growth, -100 = all killed)
Settings: 10 µM unless noted
This is part of a sample that, as a whole, favours compounds with a hit. Of some 83,000 tested, about 20% had one in any assay.
Criterion: growth meeting or surpassing 10%. Met: 1. Not met: 0.

-- ask growth >= 10% for CC1=C(CCCNS(C)(=O)=O)C2=C(C)C3(CC3)[C@@](C)(O)C(=O)C2=C1 ?
-- reply 1

-- ask Then C1CCC([PH+](C2CCCCC2)C2CCCCC2[PH+](C2CCCCC2)C2CCCCC2)CC1.[Au].[CH-]1CCCCC1CC1CCCC[N-]1 (stereo not given) ?
-- reply 0

-- ask And then CCC(O)(CN)c1ccccc1 (stereo not given) , what is it?
-- reply 1

-- ask Same read-out for CC[S][Hg][Cl] ?
-- reply 1

-- ask Then what about the compound Fc1c[c-]c(-c2ccccn2)c(F)c1.[CH3-].[Pt+2].c1ccc([PH+](c2ccccc2)c2ccccn2)cc1 ?
-- reply 0

-- ask Also Cc1cc(N(CCCl)CCCl)ccc1C=Nc1ccccc1-c1ccccc1 ?
-- reply 1

-- ask Again, but for OCc1ccc2c(c1)OCO2
-- reply 1

-- ask Quick one: CC12CC=CCC1CCC1C2CCC2(C)C(c3ccc(=O)oc3)CCC12O (stereo not given)
-- reply 0

-- ask Next entry: C1CCC([PH+](C2CCCCC2)C2CCCCC2[PH+](C2CCCCC2)C2CCCCC2)CC1.O=C(C1[CH-]CCCC1)C1CCCC[N-]1.[Au] (stereo not given)
-- reply 0

-- ask Next record, please: O=C(NCCN1CC1)C(=O)NCCN1CC1
-- reply 1

-- ask Now give it for C[C@]12CC[C@@H]3c4ccc(Oc5nc(N6CC6)nc(N6CC6)n5)cc4CC[C@H]3[C@@H]1CCC2=O too.
-- reply 0

-- ask Moving on to Cc1c2cc(Cl)c3ccccc3c2c[n+]2ccccc12
-- reply 0

-- ask Try the compound CC[C@]12C=CCN3CC[C@]4(C(=C(C(=O)OC)C1)Nc1cc(OC)c(OC(C)=O)cc14)[C@@H]32
-- reply 0

-- ask Item: CC(=O)O[C@H]1C(=O)[C@@]2(C)[C@H]([C@H](OC(=O)c3ccccc3)[C@]3(O)C[C@H](OC(=O)[C@H](OC(=O)OC[C@@H]4COC(C)(C)O4)[C@@H](NC(=O)c4ccccc4)c4ccccc4)C(C)=C1C3(C)C)[C@]1(OC(C)=O)CO[C@@H]1C[C@@H]2O
-- reply 1

-- ask And what about the compound CC1(C)CN1P(=O)(N1CC1(C)C)N1CC1(C)C (stereo not given) ?
-- reply 1

-- ask Thanks! And CN1C(=O)C(=Cc2cn(CCCCCCn3c4ccccc4c(=O)c4ccccc43)c3ccccc23)C(=O)N(C)C1=O ?
-- reply 1

-- ask Subsequent entry: Cc1cc(N(CCCl)CCCl)ccc1C=Nc1cccnc1
-- reply 1

-- ask Next entry: CN1C(=O)C(=Cc2cn(Cc3ccccc3)c3ccccc23)C(=O)N(C)C1=O
-- reply 1

-- ask Follow-up entry: CCN(CC)c1ccc2c(c1)OC(N)=C(C#N)C2c1cc(OC)c2c(c1)OCO2 (stereo not given)
-- reply 1

-- ask Quick one: COC1=CC(=O)O[C@@H](/C=C/c2ccc3c(c2)OCO3)C1
-- reply 1

-- ask Try this compound too: CC1=C([Te]c2ccc(O)cc2)C(=O)c2ccccc2C1=O
-- reply 0

-- ask Same question for C/C(Cc1ccc(Cl)cc1)=C(\c1ccc(OCCN2CCOCC2)cc1)c1ccc(OC(=O)Cc2ccccc2)cc1 please.
-- reply 1

-- ask Also, COc1cccc(C=NC(Cc2cnc[nH]2)C(=O)O)c1O (stereo not given) please.
-- reply 1

-- ask Field entry: CCCC[C@H](NC(=O)[C@H]1CCCCN1C)C(=O)N(C)[C@H](C[C@@H](OC(C)=O)c1nc(C(=O)N[C@@H](Cc2ccccc2)C[C@H](C)C(=O)OCC)cs1)C(C)C
-- reply 1

-- ask Consider next the compound Fc1ccc2c(c1)c(-c1nc(-c3c[nH]c4ncccc34)cs1)cn2CCCCN1CCCCC1 in the same way.
-- reply 0

-- ask Try the compound CCOP1(=O)CC(C)=C(Cl)C(P(=O)(OCC)OCC)C1 (stereo not given)
-- reply 1

-- ask For COC(C(=O)[C@@H](O)[C@@H](C)O)[C@@H]1Cc2cc3cc(O[C@H]4C[C@@H](O[C@H]5C[C@@H](O)[C@H](O)C(C)O5)[C@H](O)C(C)O4)c(C)c(O)c3c(O)c2C(=O)[C@H]1O[C@H]1C[C@@H](O[C@H]2C[C@@H](O[C@H]3C[C@@H](O)[C@@H](O)C(C)O3)[C@@H](O)C(C)O2)[C@H](O)C(C)O1 (stereo not given in full) then?
-- reply 1

-- ask Follow-up entry: O=C(CC1(O)C(=O)N(Cc2ccccc2)c2ccccc21)c1ccc(C(=O)NCC2CCC3(CC2)OOC2(CCCCC2)OO3)cc1 (stereo not given)
-- reply 0

-- ask Lookup C[C@@H]1O[C@@H](O[C@H]2C[C@@H](O)[C@]3(CO)C4C(CC[C@]3(O)C2)[C@@]2(O)CC[C@H](C3=CC(=O)OC3)[C@@]2(C)C[C@H]4O)[C@H](O)[C@H](O)[C@H]1O (stereo not given in full)
-- reply 0

-- ask Moving on to O=C1NC(=O)C(=Cc2cccn2CCCCCn2c3ccccc3c(=O)c3ccccc32)C(=O)N1
-- reply 1

-- ask Please answer likewise for COc1ccc2c(c1)c(-c1nc(-c3cn(C)c4ncccc34)cs1)cn2CCN1CCOCC1
-- reply 1

-- ask One more compound: c1cnc2[nH]cc(-c3csc(-c4cn(CCCCN5CCOCC5)c5ccccc45)n3)c2c1
-- reply 1

-- ask What would you report for ClCCN(CCCl)c1ccc(OCc2ccccc2)cc1 ?
-- reply 1

-- ask What about CC(=O)O[C@H](C[C@H](C(C)C)N(C)C(=O)[C@@H](NC(=O)[C@H]1CCCCN1C)C(C)C)c1nc(C(=O)N[C@@H](Cc2ccccc2)C[C@H](C)C(=O)O)c(C)s1 ?
-- reply 1

-- ask Same read-out for CNC(=O)Oc1ccc(C(C)(C)C)cc1OC(=O)NC ?
-- reply 1

###

Tested on: HT29 colon
Assay: NCI-60 one-dose screen, 48 h (100 = growth as untreated, 0 = no growth, -100 = all killed)
Details: 10 µM unless noted
About 83,000 compounds went through this panel and 20% of them were active in at least one assay; those are over-represented in the sample as a whole.
measurement.kind: growth (%)
Quick reminder: number only, in %, skip the unit.

-- ask growth for CCOC(=O)C(Cc1ccc(N(CCCl)CCCl)cc1)NC(=O)C(CC(C)C)NC(C)=O (centres undefined) ?
-- reply 8.7

-- ask Repeat with COC(=O)[C@@H](C)C[C@H](Cc1ccccc1)NC(=O)c1csc([C@@H](C[C@H](C(C)C)N(C)C(=O)C2(NC(=O)[C@H]3CCCCN3C)CCC2)OC(C)=O)n1
-- reply 5.81

-- ask Same thing, different compound: C/C(=C\c1ccn(-c2ccc(N)c(F)c2)n1)[C@@H]1C[C@@H]2O[C@]2(C)CCC[C@H](C)[C@H](O)[C@@H](C)C(=O)C(C)(C)[C@@H](O)CC(=O)O1
-- reply 14.9

-- ask Moving on to Cc1ccc(C(Cc2ccccc2)NCCO)cc1 (centres undefined)
-- reply 65.4
